These entries and their values trace back to PubChem BioAssay (NCI).

# Test system: SR leukemia
# assay_procedure: NCI-60 one-dose screen, 48 h (100 = growth as untreated, 0 = no growth, -100 = all killed)
# experimental_conditions: 10 µM unless noted
About 83,000 compounds went through this panel and 20% of them were active in at least one assay; those are over-represented in the sample as a whole. The source made the active and inactive calls. Rule for the calls: active = growth percent below 10; inactive = the rest.
value_type: growth

> print(dat)
                                    compound    observed.value
 1             O=C(c1ccccc1)c1cc2ccccc2oc1=O   107% (inactive)
 2                    CCCCOS(=O)(=O)c1ccccc1   126% (inactive)
 3  Cc1ccc2cccc(OC(=O)Nc3cccc(C(F)(F)F)c3)c2n1  36.9% (inactive)
 4  CCCCCC/C=C1\CCC(CN2CCCC2)C1=O (configuration not stated)  43.5% (inactive)
 5          CCC(=O)c1cc([N+](=O)[O-])c(Br)s1   -19.5% (active)
 6               O=C(CCl)N(c1ccccc1)c1ccccc1   101% (inactive)
 7  OC(c1cc(-c2ccc(Cl)cc2)nc2c(Cl)cccc12)C1CCCCN1 (configuration not stated)   -39.4% (active)
 8  O=C1/C(=C\c2ccc([N+](=O)[O-])cc2)CS(=O)(=O)C/C1=C/c1ccc([N+](=O)[O-])cc1   0.134% (active)
 9  CCCCCCCCCCCC(=O)OC(C)C(=O)NCCCC (configuration not stated)  85.7% (inactive)
10   CC(C)(C)CC(C)(C)c1ccc(OCCOCCSC(=N)N)cc1   -24.4% (active)
11            CCOC(=O)c1c(C)[nH]c2ccc(O)cc12   101% (inactive)
12         O=[N+]([O-])C=C(c1ccccc1)c1ccccc1  22.8% (inactive)
